// provenance: patent US20090304651A1

TARGET SYSTEM: T1, recombinant human IGF-II (Insulin-like Growth Factor II) (human, UniProt P01344 25-91, biotinylated (Biotinyl-IGF-II, GroPep) where immobilised in SPR, site not stated; not biotinylated in ITC and as SPR analyte)
T1 construct: also called IGF2; IGF-2
T1 sequence (P01344 25-91 limits assumed): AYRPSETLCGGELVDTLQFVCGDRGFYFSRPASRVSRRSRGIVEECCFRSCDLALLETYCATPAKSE
EXPERIMENT DESCRIPTION: SPR (Biacore)
METRIC: pKd
# pKd: negative log10 of molar concentration; output just the value

Query: For wild type IGF2R domain 11 (amino acids 1511-1650) with C-terminal His6 tag, from Pichia pastoris (receptor, also called WT; wild type domain 11) NEHDDCQVTNPSTGHLFDLSSLSGRAGFTAAYSEKGLVYMSICGENENCPPGVGACFGQTRISVGKANKRLRYVDQVLQLVYKDGSPCPSKSGLSYKSVISFVCRPEAGPTNRPMLISLDKQTCTLFFSWHTPLACEQATHHHHHH , what is its reported pKd?
Reply: 6.99

Query: For IGF2R domain 11 S1596A (amino acids 1511-1650, C-terminal His6 tag, from Pichia pastoris) (receptor) NEHDDCQVTNPSTGHLFDLSSLSGRAGFTAAYSEKGLVYMSICGENENCPPGVGACFGQTRISVGKANKRLRYVDQVLQLVYKDGAPCPSKSGLSYKSVISFVCRPEAGPTNRPMLISLDKQTCTLFFSWHTPLACEQATHHHHHH , what is its reported pKd?
Reply: 6.77
